Test system: 777334-354-R2-J4-PDC tumor spheroids with HUVEC/MSC, viability;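 also: spheroids exposed to compounds for 7 days before readout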
assay_summary: Anticancer human tumor 777334-354-R2-J4-PDC patient-derived pancreatic adenocarcinoma cell line growth inhibition [GQUAD]
condition_description: second compound 3.16 µM; first compound 0.0999 µM; stronger effect = lower value
Excerpt: DNA G-quadruplex Stabilizer Agents in Combinations in Complex Spheroids A high-throughput screen of multi-cell type tumor spheroids was designed to identify active combinations of DNA G-quadruplex stabilizer agents and targeted small molecules. […] Compounds. […] If the clinical Cmax for an agent had not been determined, the highest concentration tested was 10 microM. […]
Catalogue of molecules with associated viability, T/C
Numbers only; they are read as %.

// below: answered molecules
{"columns": ["molecule", "readout_number"],
 "data": [
  ["Cc1[nH]c2ccccc2c1CCNCc1ccc(/C=C/C(=O)NO)cc1 + CN(C)c1ccc(Nc2c3ccc(NC(=O)CCN4CCCC4)cc3nc3cc(NC(=O)CCN4CCCC4)ccc23)cc1", 66.1],
  ["CCc1c2c(nc3ccc(O)cc13)-c1cc3c(c(=O)n1C2)COC(=O)[C@]3(O)CC + CN(C)c1ccc(Nc2c3ccc(NC(=O)CCN4CCCC4)cc3nc3cc(NC(=O)CCN4CCCC4)ccc23)cc1", 15.9],
  ["Cc1[nH]c2ccccc2c1CCNCc1ccc(/C=C/C(=O)NO)cc1 + Cc1cnc(CNC(=O)c2c(=O)c3ccc(N4CCCN(C)CC4)nc3n3c2sc2ccccc23)cn1", 50.3],
  ["Cn1ncnc1[C@H]1c2n[nH]c(=O)c3cc(F)cc(c23)N[C@@H]1c1ccc(F)cc1 + CN(C)c1ccc(Nc2c3ccc(NC(=O)CCN4CCCC4)cc3nc3cc(NC(=O)CCN4CCCC4)ccc23)cc1", 83.1]
]}

Q: Could you tell me which viability, T/C is on file for CCc1c2c(nc3ccc(O)cc13)-c1cc3c(c(=O)n1C2)COC(=O)[C@]3(O)CC + Cc1cnc(CNC(=O)c2c(=O)c3ccc(N4CCCN(C)CC4)nc3n3c2sc2ccccc23)cn1 ?
Ans: 13.8

Recorded values, source PubChem BioAssay AID2060499.
